System: TNFα trimer (Homo sapiens)
Sequence (P01375 77-233 limits assumed): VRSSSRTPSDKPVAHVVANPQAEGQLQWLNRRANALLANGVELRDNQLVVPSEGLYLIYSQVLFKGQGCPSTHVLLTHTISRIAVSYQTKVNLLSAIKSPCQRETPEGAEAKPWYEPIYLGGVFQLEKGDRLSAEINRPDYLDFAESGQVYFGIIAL
Procedure text: TNFα FP Competitive Binding Assay
Condition label: TNFα FP competitive binding assay; class symbols A/B/C; read-out: TNF IC50
pIC50: −log10 of the molar value.
Property: pIC50

- Compound: "O[C@H]1CC[C@@H](Oc2cc(-c3ccc4nc5n(c4n3)C3(COC5)COc4ccccc43)ccn2)CC1 (stereo partly shown) [AX.2]"
  pIC50: "5.00 to 6.00"
- Compound: "CC(C)Oc1ccc(-c2ccc3nc4n(c3c2)C(c2ccccc2)COC4)cn1 (stereo not shown) [T.5]"
  pIC50: "5.00 to 6.00"
- Compound: "C[C@@H]1CN(C(=O)CO)CCN1c1ncc(-c2ccc3nc4n(c3n2)C2(COC4)COc3ccccc32)cn1 (stereo partly shown) [BH.2]"
  pIC50: "> 6.00"

Q: I have this compound here, c1ccc([C@H]2CCc3nc4ccc(-c5ccnc(OC6COC6)c5)nc4n32)cc1 [AQ.3] , and I need its recorded pIC50.
Result: 5.00 to 6.00

This collection of values is drawn from patent US20180179198A1.
